System: SR leukemia
ASSAY_OVERVIEW: NCI-60 one-dose screen, 48 h
COND: 10 µM
About 83,000 compounds went through this panel and 20% of them were active in at least one assay; those are over-represented in the sample as a whole. The source made the active and inactive calls. Rule for the calls: active = growth percent below 10; inactive = the rest.
Could you please pick one outcome from this set? YES (active), NO (inactive)

Short answer needed: outcome of this test for `COc1cnc2c(c1)C(=O)c1c-2n(CCCNCCO)c(=O)c2cc(OC)c(OC)cc12` ?
YES

Please state the recorded outcome for this molecule: `C=C[C@@]12CN3CC[C@]1(O)[C@@](C(=O)OC)(CO2)c1[nH]c2ccccc2c1C3`
NO

What did this assay record as the result for `O=C(CNc1nc(-c2ccccc2)cs1)Nc1ccc([N+](=O)[O-])cc1Cl` ?
NO

Per the assay record, what outcome was assigned to `Cc1ccc2nc3c(nc2c1)c1cc(I)ccc1n3CCN(C)C` ?
NO

Please let me know the test result on file for `CCCCSc1nc(Nc2ccc(/C(C)=N/NC(N)=S)cc2)c(C#N)c(-c2ccccc2)n1` .
NO

Identify the outcome logged in this assay for the molecule shown: `CC(C)Sc1nc(NC2CC2)c(C#N)c(-c2ccccc2)n1`
NO

Name the outcome recorded for `CC(=O)Nc1ccc(-c2cn(-c3cccc(C(=O)Nc4cc(CN5CCOCC5)cc(C(F)(F)F)c4)c3)nn2)cn1` in the assay.
YES

Outcome logged for `COc1cc2c3c(n(CCCn4ccnc4)c(=O)c2cc1OC)-c1nc2c(cc1C3=O)OCO2` in this assay:
NO

Recorded test outcome, item COc1ccc(/C=C/C(=O)c2ccc(NC(=O)CN3C(=O)NC(C)(c4ccccc4)C3=O)cc2)cc1 (configuration not stated)
NO

Record request — test call for CN(C)c1ccc(/C=C/C(=O)c2ccc(NC(=O)CN3C(=O)NC(C)(c4ccccc4)C3=O)cc2)cc1 (configuration not stated)
NO

So what was the verdict on `CC(=O)Nc1ccc(-c2cn(-c3cccc(C(=O)Nc4ccc(Cl)c(C(F)(F)F)c4)c3)nn2)cn1` in this test?
NO

Dear all, I need the recorded test outcome for `COC1=C[C@@]23CCC(=O)N2CCc2cc4c(cc2[C@H]3[C@H]1OC(=O)C(C)(C)O)OCO4` , thank you.
NO

Kindly provide the recorded test outcome for the following molecule: `N#Cc1ccc(-c2nn(-c3ccc(C(=O)O)cc3)cc2CNc2ccc(Oc3ccccc3)cc2)cc1`
NO

Status in this test for `CC1(C)[C@@H](NCO)CC[C@]2(C)[C@H]3C(=O)C=C4[C@@H]5C[C@](C)(CO)CC[C@]5(C)CC[C@@]4(C)[C@]3(C)CC[C@@H]12` ?
NO

Outcome? CC[C@]12C=CCN3CC[C@@]4(c5cc(C#CCNc6ccc(C)c(Nc7nccc(-c8cccnc8)n7)c6)c(OC)cc5N(C)[C@H]4[C@@](O)(C(=O)OC)[C@@H]1OC(C)=O)C32 (some centres not stated)
NO

Recorded test outcome, item `O=C(Nc1ccc(Cl)c(C(F)(F)F)c1)c1cncc(C#Cc2cnc3ccc(N4CCOCC4)nn23)c1`
YES

Short answer needed: outcome of this test for `CC(C)(C)c1ccc(NCc2cn(-c3ccc(C(=O)O)cc3)nc2-c2ccc(C#N)cc2)cc1` ?
YES

Field: outcome | Entry: `CCCn1c(=O)c2[nH]c(-c3ccc(OCc4nc5ccccc5[nH]4)cc3)nc2n(CCC)c1=O`
NO

For this molecule, state the assay outcome: `O=C(CNc1nc(-c2ccccc2)cs1)Nc1ccc(Cl)cc1`
YES

GET /call?item= `Cc1cc(C)nc(/N=C(\N)Nc2ccc(S(=O)(=O)Nc3nc(C)cc(C)n3)cc2)n1` returns the recorded outcome of this test.
NO

Call for entry `N#Cc1ccc(-c2nn(-c3ccc(C(=O)O)cc3)cc2CNc2ccc(Cl)cc2)cc1` :
NO

Please state the recorded outcome for this molecule: `COc1ccc2[nH]c(=O)c(CSc3ccc(Nc4nccc(-c5ccc(Cl)cc5)n4)cc3)cc2c1`
NO

Tell me the recorded outcome of this test for CN1C(=O)N(C)C2SC(N/N=C/c3cccs3)=NC21 (configuration not stated) .
NO

Each molecule tested received a call. Report the one for `Cc1cc(=O)oc2cc(OCCCCOc3ccc(/C=C/C(=O)Nc4ccccc4[N+](=O)[O-])cc3)ccc12` .
NO

What call does the record list for COc1cc(C2CC(c3ccc(C)cc3)=Nc3c(N)nc(N)nc3N2)ccc1Oc1nc(Nc2ccc(F)cc2)nc(N(C)C)n1 (configuration not stated) ?
YES

Identify the outcome logged in this assay for the molecule shown: `CC(=O)Nc1ccc(-n2cnc3cc(-c4ccc(NS(C)(=O)=O)cc4)ccc32)cc1`
NO

Query: recorded result category for `O=C(Cn1nc(-c2ccccc2)ccc1=O)NNC(=S)NC1CCCCC1` in this test
NO

----------
Kindly supply the reported growth values for the records listed here.
Test system: COLO 205 colon
ASSAY_OVERVIEW: NCI-60 one-dose screen, 48 h (100 = growth as untreated, 0 = no growth, -100 = all killed)
COND: 10 µM
This is part of a sample that, as a whole, favours compounds with a hit. Of some 83,000 tested, about 20% had one in any assay.
Just the number in %, nothing appended.

// growth value for `C=C(C)[C@@H]1CC[C@]2(C)[C@H](CC=C3[C@@H]4CC(C)(C)CC[C@]4(C(=O)N4CCOCC4)CC[C@]32C)[C@@]1(C)CCCN` : -92.8

Reported growth for CC1(c2ccccc2)NC(=O)N(CC(=O)Nc2ccc(C(=O)/C=C/c3ccccc3)cc2)C1=O (configuration not stated) was 76.4

Noted for `OCCCNc1oc(-c2ccccc2)nc1[P+](c1ccccc1)(c1ccccc1)c1ccccc1` : its growth reads -52.3

In plain terms, `O=c1oc2ccc(-c3ccc(F)cc3F)cc2c(=O)n1-c1ccc(Cl)c(C(F)(F)F)c1` has a documented growth of -81.3

Please fill in: growth reported for O=C(c1ccc(Cl)cc1)C1[C@H](c2ccccc2Br)[C@@H](c2ccccc2)NC12C(=O)Nc1ccc(Br)cc12 (some centres not stated) = -49.6

growth reported for this compound `CCCCCCCCCCCCCCCCCCCC(=O)NCCc1c[nH]c2ccc(OC(=O)NOCCOCCOCCOCCOCCOCCOCCOCCOCCOCCOCCOCCOCCOCCOCCOCCOCCOCCOCCOCCOCCOCCOC)cc12` : -100

Recorded growth (compound `CC(C)C1=C[C@@]23CC[C@@H]4[C@](C)(CCC[C@]4(C)C(=O)NCc4ccccc4)[C@H]2C[C@@H]1[C@H]1C(=O)CCC(=O)[C@H]13` ): 103

growth reading for `COC[C@@H](CC(C)C)N=C1N/C(=C\c2ccc3ncsc3c2)C(=O)N1C` : -28.4

Consider `Cc1noc2c(Cc3ccc([N+](=O)[O-])cc3)nn(CC(=O)N/N=C/c3ccc(Br)cc3)c(=O)c12` . Its measured growth is 119

Sample `O=C(Nc1cccc([N+](=O)[O-])c1)Nc1cccc([N+](=O)[O-])c1` ; growth observed: 121

The measured growth associated with COc1ccc(/C=C/C(=O)c2ccc(NC(=O)CN3C(=O)NC(C)(c4ccccc4)C3=O)cc2)cc1 (configuration not stated) reads 106

Sample `CCCS(=O)(=O)c1oc(-c2ccc(F)cc2)nc1S(=O)(=O)c1ccc(F)cc1` ; growth observed: -92.1

Reported growth for `O=C(NO)c1ccc(-c2nc3ccc4[nH]ncc4c3c3c2CCCC3)cc1` was -20.1

Please fill in: growth reported for `COc1cc(/C=C/C(=O)c2cc(OC)c(OC)c(OC)c2)ccc1Oc1nc(Nc2ccc(F)cc2)nc(N(C)C)n1` = 7.64

Quick note, growth for `Clc1ccc(/C=N/Nc2ncnc3sc4c(c23)CCN(Cc2ccccc2)C4)cc1` landed at -86.1

Short answer for `COc1csc(/C=N/NC(=O)c2[nH]c3ccc(Br)cc3c2-c2ccccc2)c1` : growth was -79.9

Record `COc1ccc(-c2cc(C(=O)N=Nc3c(O)[nH]c4ccccc34)c3ccccc3n2)cc1` . Reported growth: -5.77

So, `CCOC(=O)c1sc(N/N=C(\C)c2ccc3c(c2)Nc2ccccc2S3)nc1C` ? Its growth was -42.2

Record `CCOC(=O)N/C(=C1/OCCN1C)[P+](c1ccccc1)(c1ccccc1)c1ccccc1` . Reported growth: 41.3

Short answer for `CCN1CCN(c2ccc(NC(=O)Nc3ccc4c(c3F)CCN4c3ccnc(C(=O)NC)c3)cc2C(F)(F)F)CC1` : growth was 120

Lab note: `CCOc1ccc(Nc2nc3ccccc3nc2Nc2ccc(OCC)cc2)cc1` gave growth of 95.9

In plain terms, `CN1CCN(c2ccc(Nc3nc(NCCNC(=O)c4ccc(C(F)(F)F)cc4)c4sccc4n3)cc2)CC1` has a documented growth of -87.6

So, `COC(=O)C[C@](O)(CCCC(C)(C)O)C(=O)O[C@H]1C(OC)=C[C@@]23CCC(=O)N2CCc2cc4c(cc2[C@@H]13)OCO4` ? Its growth was 118

Entry COc1ccc(C2NC(=S)NC(C)=C2C(=O)OC(C)C)cc1OC (configuration not stated) — recorded growth = 140

`Cc1ccc(-c2nc3ccc(C(=O)N=Nc4c(O)[nH]c5ccc(Br)cc45)cc3[nH]2)cc1` has a reported growth of 61

Memo: `COc1ccc(CCN2C(=O)/C(=C/c3csc(C#N)n3)SC2=S)cc1` , reported growth: -75

Recorded result, `CNC(=O)c1cc(-c2ccc(NC(=O)Nc3ccc(C)cc3)cc2)nc2cccnc12` , growth: 115
